This collection of values is drawn from patent US20260042753A1.

System name: c-Kit(V654A) (Homo sapiens, UniProt P10721, V654A)
Assay name: c-Kit(V654A) assay
Type: biochemical
Measurement parameters: Table 1; 200 μM ATP
Description: c-Kit(V654A) (N-terminal GST-tagged, recombinant human c-Kit, amino acids 544-end containing the V654A mutation) is incubated with 8 mM MOPS pH 7.0, 0.2 mM EDTA, 250 μM GGMEDIYEFMGGKKK, 10 mM MgAcetate and [gamma-33P-ATP](specific activity approx. 500 cpm/pmol, concentration 200 μM). The reaction is initiated by the addition of the MgATP mix. After incubation for 40 minutes at room temperature, the reaction is stopped by the addition of 3% phosphoric acid solution. […]
Output schema: class label derived from IC50. Mapping: interval 1 (below 1 nM), interval 2 (1 nM to below 2 nM), interval 3 (2 nM or more)

Record excerpt, results attached:
molecule=COCCOc1cc2[nH]nc(-c3cc(-c4ccc(C(=O)N5CC(S(C)(=O)=O)C5)cc4)no3)c2cc1F group="interval 1"
molecule=COCCOc1cc2[nH]nc(-c3cc(-c4ccc(C(=O)N5CC(c6cnn(C)c6)C5)cc4)no3)c2cc1F group="interval 1"
molecule=COCCOc1cc2[nH]nc(-c3cc(-c4ccc(C(=O)N5CCN(C6COC6)CC5)c(F)c4)no3)c2cc1F group="interval 3"

Ask: Which band does `COCCOc1cc2[nH]nc(-c3cc(-c4ccc(OCCN5CCOCC5)cc4)no3)c2cc1F` fall in?
Result: interval 3

Ask: Which band does `COCCOc1cc2[nH]nc(-c3cc(-c4ccc(C(=O)N5CCC56COC6)cc4)no3)c2cc1F` fall in?
Result: interval 2

Ask: Which band does `COCCOc1cc2[nH]nc(-c3cc(-c4ccc(C(=O)N5CCC6(CN(C)C6)C5)cc4)no3)c2cc1F` fall in?
Result: interval 3

Ask: Which band does COCCOc1cc2[nH]nc(-c3cc(-c4ccc(C(=O)N5C[C@H]6CC(=O)N[C@H]6C5)cc4)no3)c2cc1F (relative stereo) fall in?
Result: interval 2

Ask: Which band does `COCCOc1cc2[nH]nc(-c3cc(-c4ccc(NC(C)=O)cc4)no3)c2cc1Cl` fall in?
Result: interval 3

Ask: Which band does `COCCOc1cc2[nH]nc(-c3cc(-c4ccc(C(=O)N5CCN([C@H]6CCOC6)CC5)cc4)no3)c2cc1F` fall in?
Result: interval 2

Ask: Which band does `COCCOc1cc2[nH]nc(-c3cc(-c4ccc(C(=O)N5CC[C@H]5CS(C)(=O)=O)cc4)no3)c2cc1F` fall in?
Result: interval 1

Ask: Which band does `COCCOc1cc2[nH]nc(-c3cc(-c4ccc(C(=O)N5CCOC[C@H]5C)cc4)no3)c2cc1F` fall in?
Result: interval 1

Ask: Which band does `COCCOc1cc2[nH]nc(-c3cc(-c4ccc(N=S5(=O)CCNCC5)cc4)no3)c2cc1F` fall in?
Result: interval 2

Ask: Which band does `COCCOc1cc2[nH]nc(-c3cc(-c4ccc(C(=O)N5CCC[C@H]5C(C)(C)O)nc4)no3)c2cc1F` fall in?
Result: interval 3

Ask: Which band does CNCC1CCCN1C(=O)c1ccc(-c2cc(-c3n[nH]c4cc(OCCOC)c(F)cc34)on2)cc1 (stereo not shown) fall in?
Result: interval 1

---

System name: mutant cKIT (560-576 and V654A) in GIST430/654 cell line (Homo sapiens (Human), UniProt P10721, DEL560-576/V654A)
Sequence (P10721 other isoform, or with tags, fused parts or gaps V654A/del 1-25/del 560-576 limits assumed): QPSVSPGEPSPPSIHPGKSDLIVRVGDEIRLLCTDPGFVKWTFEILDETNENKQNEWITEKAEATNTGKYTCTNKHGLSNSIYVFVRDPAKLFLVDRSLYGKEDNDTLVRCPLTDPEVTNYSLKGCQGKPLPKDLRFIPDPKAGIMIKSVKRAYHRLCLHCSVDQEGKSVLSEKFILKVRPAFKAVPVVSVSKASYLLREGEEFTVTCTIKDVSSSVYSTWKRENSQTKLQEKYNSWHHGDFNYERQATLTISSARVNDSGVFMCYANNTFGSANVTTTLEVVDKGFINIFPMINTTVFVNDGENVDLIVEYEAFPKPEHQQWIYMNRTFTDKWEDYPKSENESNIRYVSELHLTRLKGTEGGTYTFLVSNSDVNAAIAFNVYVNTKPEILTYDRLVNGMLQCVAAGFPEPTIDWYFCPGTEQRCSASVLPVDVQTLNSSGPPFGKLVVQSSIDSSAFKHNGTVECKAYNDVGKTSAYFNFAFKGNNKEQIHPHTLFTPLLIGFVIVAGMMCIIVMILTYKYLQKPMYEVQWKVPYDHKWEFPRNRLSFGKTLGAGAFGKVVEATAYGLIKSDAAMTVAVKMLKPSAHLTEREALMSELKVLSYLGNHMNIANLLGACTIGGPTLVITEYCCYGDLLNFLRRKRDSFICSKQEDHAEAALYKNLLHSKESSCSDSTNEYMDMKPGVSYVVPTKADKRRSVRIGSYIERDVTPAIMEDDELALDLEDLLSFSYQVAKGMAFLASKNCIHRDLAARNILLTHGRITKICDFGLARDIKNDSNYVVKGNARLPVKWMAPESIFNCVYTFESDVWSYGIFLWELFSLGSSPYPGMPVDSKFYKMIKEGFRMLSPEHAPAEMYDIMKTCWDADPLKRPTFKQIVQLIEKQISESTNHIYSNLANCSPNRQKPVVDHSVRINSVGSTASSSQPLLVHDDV
Assay name: Cellular testing of cKIT mutant inhibitors: phospho-Y307-cKIT Luminex assay in GIST430/654 cells
Format: cell-based
Measurement parameters: Table 2, isoxazole derivatives presently described; read-out: GIST 430/654 IC50
Readout kind: IC50 (nM)
Quick note: give the figure in nM, leave out the unit.

molecule="COCCOc1cc2[nH]nc(-c3cc(-c4ccc(C(=O)N5CCOC[C@H]5C)cc4)no3)c2cc1F [compound 114]" numeric_result=56

Ask: # query: IC50 of entry COCCOc1cc2[nH]nc(-c3cc(-c4ccc(C(=O)N5CCN(C)C[C@@H]5C)cc4)no3)c2cc1F [A3]
Result: 38

---

System name: mutant cKIT (560-576 and V654A) in GIST430/654 cell line (Homo sapiens (Human), UniProt P10721, DEL560-576/V654A)
Assay name: Cellular testing of cKIT mutant inhibitors: phospho-Y307-cKIT Luminex assay in GIST430/654 cells
Format: cell-based
Measurement parameters: Table 1; cKIT autophosphorylation, compounds 45 min; read-out: GIST 430/654 IC50
Readout kind: pIC50
Kindly note that pIC50 refers to -log10 of the concentration in mol/L and answer with the value alone.

Examples with their reported pIC50 follow.
smiles_notation=COCCOc1cc2[nH]nc(-c3cc(-c4ccc(C(=O)N5CC(F)C5)nc4)no3)c2cc1F numeric_result=6.07
smiles_notation=COCCOc1cc2[nH]nc(-c3cc(-c4ccc(C(=O)N5CC[C@@H]5CO)cc4)no3)c2cc1F numeric_result=7.39
smiles_notation=COCCOc1cc2[nH]nc(-c3cc(-c4ccc(C(=O)N5CC(F)C5)cn4)no3)c2cc1F numeric_result=6.68

Ask: # query: pIC50 of entry `COCCOc1cc2[nH]nc(-c3cc(-c4ccc(C(=O)N5CC6(C5)CS(=O)(=O)C6)cc4)no3)c2cc1F`
Result: 6.62

---

System name: c-Kit(V654A) (Homo sapiens, UniProt P10721, V654A)
Assay name: c-Kit(V654A) assay
Assay type: biochemical
Measurement parameters: Table 1; 200 μM ATP
Under this convention, 1 denotes IC50 strictly below 2 nM and -1 denotes IC50 at or above 2 nM.

Record excerpt, results attached:
compound="COCCOc1cc2[nH]nc(-c3cc(-c4ccc(OCCN5CCN(C)CC5)cc4)no3)c2cc1F [A133]" group=1
compound="COCCOc1cc2[nH]nc(-c3cc(-c4ccc(C(=O)N5CC[C@@H]5CS(C)(=O)=O)cc4)no3)c2cc1F [A154]" group=1
compound="COCCOc1cc2[nH]nc(-c3cc(-c4ccc(C(=O)N5C6CC5CS(=O)(=O)C6)cc4)no3)c2cc1F [A108]" group=1

Ask: Field: below-cutoff. Rule: recorded IC50 strictly less than 2 nM. Subject: COCCOc1cc2[nH]nc(-c3cc(-c4ccc(C(=O)N5CC(C#N)C5)nc4)no3)c2cc1F [A96]
Result: -1

Ask: Field: below-cutoff. Rule: recorded IC50 strictly less than 2 nM. Subject: COCCOc1cc2[nH]nc(-c3cc(-c4ccc(N5CCS(=O)(=O)CC5)nc4)no3)c2cc1F [A131]
Result: -1

---

System name: mutant cKIT (560-576 and V654A) in GIST430/654 cell line (Homo sapiens (Human), UniProt P10721, DEL560-576/V654A)
Assay name: Cellular testing of cKIT mutant inhibitors: phospho-Y307-cKIT Luminex assay in GIST430/654 cells
Format: cell-based
Measurement parameters: Table 1; cKIT autophosphorylation, compounds 45 min; read-out: GIST 430/654 IC50
Readout kind: pIC50
Kindly note that pIC50 refers to -log10 of the concentration in mol/L and answer with the value alone.

Examples with their reported pIC50 follow.
molecule="COCCOc1cc2[nH]nc(-c3cc(-c4ccc(C(=O)N5CC(N6CCOCC6)C5)cc4)on3)c2cc1F [A146]" readout_kind=pIC50 numeric_result=7.05
molecule="COCCOc1cc2[nH]nc(-c3cc(-c4ccc(C(=O)N5CCN(C6COC6)CC5C)cc4)no3)c2cc1F (stereo not shown) [A174]" readout_kind=pIC50 numeric_result=7.46
molecule="COCCOc1cc2[nH]nc(-c3cc(-c4ccc(C(=O)N5CC(N6CCOCC6)C5)c(F)c4)no3)c2cc1F [A168]" readout_kind=pIC50 numeric_result=7.31

// switching to the query molecule
Ask: # query: pIC50 of entry COCCOc1cc2[nH]nc(-c3cc(-c4ccc(C(=O)N5C[C@H]6CC(=O)N[C@H]6C5)cc4)no3)c2cc1F (relative stereo) [A203]
Result: 6.25

---

System name: mutant cKIT (560-576 and V654A) in GIST430/654 cell line (Homo sapiens (Human), UniProt P10721, DEL560-576/V654A)
Assay name: Cellular testing of cKIT mutant inhibitors: phospho-Y307-cKIT Luminex assay in GIST430/654 cells
Format: cell-based
Measurement parameters: Table 1; cKIT autophosphorylation, compounds 45 min; read-out: GIST 430/654 IC50
Under this convention, true (1) denotes IC50 strictly below 0.1 µM and false (0) denotes IC50 at or above 0.1 µM.

Ask: Field: below-cutoff. Rule: recorded IC50 strictly less than 0.1 µM. Subject: COCCOc1cc2[nH]nc(-c3cc(-c4ccc(C(=O)N5CCC[C@@H]5CO)cc4)no3)c2cc1F [A52]
Result: true (1)
